# Measured On: human glucagon receptor (human, UniProt P47871 26-477)
# Procedure Details: cell-based or functional assay
Non-standard residues stand in square brackets, D forms with d. No end group written: not given here. *: point of attachment. Bip(2'-Et-4'-OMe) = CCc1cc(OC)ccc1-c1ccc(C[C@H](N)C(=O)O)cc1; 2F‑APPA = 2-amino-5-(2-fluorophenyl)pentanoic acid; αMePhe(2-F) = C[C@](N)(Cc1ccccc1F)C(=O)O; NMeBip(OMe) = N-methylated Bip(OMe); NMeD = CN[C@@H](CC(=O)O)C(=O)O; aThr = C[C@H](O)[C@H](N)C(=O)O; NMeAPPA = not defined here; CNB = not defined here; Aib = CC(C)(N)C(=O)O; Moc = COC(=O)*
Observed Property: inhibition of cAMP production, 10 nM (pmol/ml/µg prt)

Give inhibition of cAMP production, 10 nM for the following binder: Moc-H[Aib]QG[aThr][αMePhe(2-F)][aThr]SD[Bip(2'-Et-4'-OMe)][2F‑APPA] (also: reduced (CH2) bonds between 9-10 and 10-11) [Seq. ID. No. 200: CH3OCO-H-Aib-QG-T(allo)-(α-Me-2F-Phe)-T(allo)-SD-(CH2)-Bip(OMe)-(CH2)-(2F-APPA)]
8

Give inhibition of cAMP production, 10 nM for the following binder: Moc-H[Aib]QG[aThr][αMePhe(2-F)][aThr]S[NMeD][NMeBip(OMe)][NMeAPPA] (reading uncertain)
8

Give inhibition of cAMP production, 10 nM for the following binder: H[Aib][CNB]G[aThr][αMePhe(2-F)][aThr]SD[NMeBip(OMe)][NMeAPPA] (reading uncertain) [Seq. ID. No. 142: H-Aib-(CNB)-G-T(allo)-(α-Me-2F-Phe)-T(allo)-SD-((NMe)Bip(OMe))-((NMe)(APPA))]
8
